Where do these numbers come from? They come from patent US11466044B2.

System: A1555G mutant mitochondrial ribosome (human chimeric)
Experiment: in-vitro translation assay, human chimeric ribosomes, A1555G mutant mitochondrial decoding site
Format: biochemical
Conditions: Table 3 (Example 3)
Where a name gives a salt, the structure may show the parent alone.
Reported Selectivity for Binding to the Bacterial Ribosome over the Mutant Mitochondrial Ribosome values are given for each entry in this list.
RECORDED METRIC: Selectivity for Binding to the Bacterial Ribosome over the Mutant Mitochondrial Ribosome

COMPOUND	NUMERIC VALUE
CC(=O)O.NCC(=O)NC1C(OC2C(N)CC(N)C(O)C2OC2OC(CO)C(OC3OC(CN)C(O)C(O)C3N)C2O)OC(CN)C(O)C1O (stereo not drawn) [Compound 175]	153
CCNC1C(OC2C(N)CC(N)C(O)C2OC2OC(CO)C(OC3OC(CN)C(O)C(O)C3N)C2O)OC(CN)C(O)C1O (stereo not drawn) [Compound 172, 2′-N-Ethyl-neomycin acetate salt]	111
CCCNC1C(OC2C(N)CC(N)C(O)C2OC2OC(CO)C(OC3OC(CN)C(O)C(O)C3N)C2O)OC(CO)C(O)C1O (stereo not drawn) [Compound 128, 2′-N-Propyl-paromomycin acetate salt]	763
NCC1OC(OC2C(CO)OC(OC3C(O)C(N)CC(N)C3OC3OC(CN)C(O)C(O)C3O)C2O)C(N)C(O)C1O (stereo not drawn) [Compound 119]	94
CC(=O)NC1C(OC2C(N)CC(N)C(O)C2OC2OC(CO)C(OC3OC(CN)C(O)C(O)C3N)C2O)OC(CN)C(O)C1O (stereo not drawn) [Compound 183]	5.2
CCNC1C(OC2C(N)CC(N)C(O)C2OC2OC(CO)C(OC3OC(CN)C(O)C(O)C3N)C2O)OC(CO)C(O)C1O (stereo not drawn) [Compound 127]	1804
